Molecular target: SIRT2 (Homo sapiens)
Sequence (Q8IXJ6 1-389): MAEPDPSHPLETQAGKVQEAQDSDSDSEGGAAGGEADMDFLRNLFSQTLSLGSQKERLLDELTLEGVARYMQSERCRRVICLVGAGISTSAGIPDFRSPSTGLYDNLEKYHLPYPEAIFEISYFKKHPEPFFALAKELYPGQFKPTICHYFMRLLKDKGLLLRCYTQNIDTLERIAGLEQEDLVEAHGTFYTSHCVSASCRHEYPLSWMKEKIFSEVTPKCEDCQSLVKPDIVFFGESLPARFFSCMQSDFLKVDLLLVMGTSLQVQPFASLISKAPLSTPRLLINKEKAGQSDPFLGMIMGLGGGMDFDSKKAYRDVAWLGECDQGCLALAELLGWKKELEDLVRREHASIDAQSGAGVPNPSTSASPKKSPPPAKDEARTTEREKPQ
Experiment: Continuous fluorogenic sirtuin inhibition assay, SIRT2 (tBuK peptides, TB)
Assay type: biochemical
Conditions: inhibitor 1 µM; single trials
Starred links: 1 amine or outer side, 2 acyl side, 3 side chain; linkers in the order of their positions; H or OH if unused. Non-standard residues stand in square brackets, D forms with d. Residues, ends and D or L forms follow the SMILES beside them. X1 = CCCC(=S)NCCCC[C@H](N[*:1])C(=O)[*:2]; Abu = CC[C@H](N)C(=O)O
Result type: activity at 1 µM (%)
// units = %; emit number, no label

Use these answered entries as a reference point.
{"Compound": "CCCC(=S)NCCCC[C@H](NC(=O)[C@@H](NC(=O)[C@@H](NC(=O)[C@@H](N)CC)[C@@H](C)O)C(C)C)C(=O)N[C@H](C(N)=O)[C@@H](C)CC [S2P04(Abu)-5-tBuK] (H-[Abu]TV[X1]I-NH2)", "activity at 1 µM / %": 6.61}
{"Compound": "CCCC(=S)NCCCC[C@H](NC(=O)[C@@H](NC(=O)[C@@H](NC(=O)[C@H](CS)NC(C)=O)[C@@H](C)O)C(C)C)C(=O)N[C@H](C(N)=O)[C@@H](C)CC [Ac-S2P04-5-tBu] (Ac-CTV[X1]I-NH2)", "activity at 1 µM / %": 5.39}
{"Compound": "CCCC(=S)NCCCC[C@H](NC(=O)[C@@H](NC(=O)[C@@H](NC(=O)[C@H](CS)NC(=O)[C@@H](N)[C@@H](C)O)[C@@H](C)O)C(C)C)C(=O)N[C@H](C(=O)NCC(N)=O)[C@@H](C)CC [S2P04-tBuK] (H-TCTV[X1]IG-NH2)", "activity at 1 µM / %": 3.54}
{"Compound": "CCCC(=S)NCCCC[C@H](NC(=O)[C@H](Cc1ccccc1)NC(=O)[C@@H](NC(=O)[C@@H](N)CS)[C@@H](C)O)C(=O)N[C@H](C(=O)N1CCC[C@H]1C(=O)N[C@H](C(N)=O)[C@@H](C)O)C(C)C [S2P07-tBuK] (H-CTF[X1]VPT-NH2)", "activity at 1 µM / %": 6.71}
{"Compound": "CCCC(=S)NCCCC[C@H](NC(=O)[C@@H](NC(=O)[C@@H](NC(=O)[C@@H](N)CS)[C@@H](C)O)C(C)C)C(=O)N[C@H](C(N)=O)[C@@H](C)CC [S2P04-5-tBuK] (H-CTV[X1]I-NH2)", "activity at 1 µM / %": 6.24}

Next up:
[ask] Look at this compound and give its reported activity at 1 µM. CCCC(=S)NCCCC[C@H](NC(=O)OCc1ccccc1)C(=O)Nc1ccccc1 [TB, reference compound]
[reply] 80.3
